Assay: The drug is tested on Z-023 corresponding to metagenome with ENA study accession number: PRJEB37062 and ENA sample accession number: ERS12561822 for biotransformation under anaerobic condition. The drug concentrations were measured over 9 timepoints collected between 0 and 24 hours of incubation by liquid-chromatography-coupled mass spectrometry (LC–MS); also: call rule not given here
Details: 2 µM
Where a SMILES comes first, the peptide text is derived from it. [ ]: non-standard residue; d: D form. pGlu = O=C1CC[C@@H](C(=O)O)N1; Thz = O=C(O)[C@@H]1CSCN1
value.kind: Bacterial Biotransformation

1) CCCCCOC(=O)Nc1nc(=O)n([C@@H]2O[C@H](C)[C@@H](O)[C@H]2O)cc1F; Compound metabolized
2) CC(O)(CS(=O)(=O)c1ccc(F)cc1)C(=O)Nc1ccc(C#N)c(C(F)(F)F)c1 (configuration not stated) [BICALUTAMIDE]; Compound NOT metabolized
3) COc1ccc2[nH]c([S+]([O-])Cc3ncc(C)c(OC)c3C)nc2c1 (configuration not stated); Compound NOT metabolized
4) O=C1CC[C@@H](C(=O)N2CSC[C@H]2C(=O)O)N1 [PIDOTIMOD] ([pGlu]-[Thz]-OH); Compound metabolized
5) CC(CN1c2ccccc2Sc2ccccc21)N(C)C (configuration not stated); Compound metabolized
6) COc1ccc2c3c1O[C@H]1C[C@@H](O)C=C[C@@]31CCN(C)C2; Compound NOT metabolized

# query: Bacterial Biotransformation of entry "CCOc1ccc(NC(C)=O)cc1"
Compound NOT metabolized

Name the recorded Bacterial Biotransformation for C[C@@H](CO)NC(=O)[C@@H]1C=C2c3cccc4[nH]cc(c34)C[C@H]2N(C)C1.O=C(O)/C=C\C(=O)O [ERGONOVINE MALEATE] .
Compound NOT metabolized

For the molecule shown here, "CNC(=C[N+](=O)[O-])NCCSCc1csc(CN(C)C)n1" , give the reported Bacterial Biotransformation.
Compound NOT metabolized

What value of Bacterial Biotransformation has been reported for the following molecule? "Cc1ccc(-c2cc(C(F)(F)F)nn2-c2ccc(S(N)(=O)=O)cc2)cc1"
Compound NOT metabolized

Please give the measured Bacterial Biotransformation for this molecule: "COc1ccc2c(c1OC)C(=O)O[C@@H]2[C@H]1c2c(cc3c(c2OC)OCO3)CCN1C"
Compound metabolized

Value lookup for Bacterial Biotransformation; key = CC[C@@H](CO)NC(=O)[C@@H]1C=C2c3cccc4c3c(cn4C)C[C@H]2N(C)C1.O=C(O)/C=C\C(=O)O [METHYSERGIDE MALEATE]
Compound NOT metabolized

---

Experiment: The drug is tested on WLS-073 corresponding to human gut metagenome with ENA study accession number: PRJEB37062 and ENA sample accession number: ERS12561749 for biotransformation under anaerobic condition. The drug concentrations were measured over 9 timepoints collected between 0 and 24 hours of incubation by liquid-chromatography-coupled mass spectrometry (LC–MS)
Details: 2 µM
value.kind: Bacterial Biotransformation

For orientation, consider the following solved cases.
1) CN(C)CC(c1ccc(O)cc1)C1(O)CCCCC1.O=C(O)CCC(=O)O (stereo not given) [DESVENLAFAXINE SUCCINATE]; Compound NOT metabolized
2) Nc1ccc(/N=N/c2ccccc2)c(N)n1 [PHENAZOPYRIDINE]; Compound metabolized
3) O=P(O)(O)O.c1ccc(CN(CC2=NCCN2)c2ccccc2)cc1 [ANTAZOLINE PHOSPHATE]; Compound NOT metabolized
4) CC(C(=O)O)c1ccc2c(c1)Cc1cccnc1O2 (stereo not given) [PRANOPROFEN]; Compound metabolized

Kindly review the next compound as well.
I'd like to know its Bacterial Biotransformation. The compound in question is COc1cc2nc(N3CCN(C(=O)c4ccco4)CC3)nc(N)c2cc1OC [PRAZOSIN]
Compound metabolized
